Where do the numbers come from? From ChEMBL document CHEMBL4689842.

# System: U2OS
# run description: Multiplex assay against U2OS
# Type: toxicity, cell-based
# stated conditions: human, 12 h, 1 µM, compound concentration 1 uM, replicate 1
Reported Total Cell Count by item:
Answer with a bare number; do not write a unit.

Task: Return Total Cell Count measured with U2OS given this compound: CN(c1cc(C(F)(F)F)nc(OCCC(=O)O)n1)c1cccc2c1CCC2
Result: 191

Task: Cool, now CCOC(=O)CCNc1cc(N2CCc3ccccc3CC2)nc(-c2ccccn2)n1
Result: 244

----------
Reported Population Mitotic Cells (%) by item:
# System: U2OS
# run description: Multiplex assay against U2OS
# Assay type: toxicity, cell-based
# stated conditions: human, 48 h, 10 µM, compound concentration 10 uM, replicate 1
# number only, unit % dropped from output

Example cases with answers are listed next.
Task: Return Population Mitotic Cells (%) measured with U2OS given this compound: CCCCCNC(=N)N/N=C/c1c[nH]c2ccc(OC)cc12.O=C(O)/C=C\C(=O)O [TEGASEROD MALEATE]
Result: 8

Task: Cool, now CC(C)[C@H](CO)Nc1nc(Nc2cccc(Cl)c2)c2ncn(C(C)C)c2n1
Result: 22

Task: Cool, now N#CCNC(=O)c1ccc(-c2ccnc(Nc3ccc(N4CCOCC4)cc3)n2)cc1
Result: 27

Here is another compound to look at.
Task: Return Population Mitotic Cells (%) measured with U2OS given this compound: c1ccc(-c2oc3ncnc(NC[C@@H]4CCCO4)c3c2-c2ccccc2)cc1
Result: 29

----------
# Test system: U2OS
# run description: Multiplex assay against U2OS
# Format: toxicity, cell-based
# stated conditions: human, 12 h, 10 µM, compound concentration 10 uM, replicate 2
Would you please tag the item 1 (yes) when its Population Normal (%) is 90% or above, and 0 (no) when it is below?

Observe how each entry below is paired with its result.
Task: Hi, just wondering whether CN(c1cc(C(F)(F)F)nc(OCCC(=O)O)n1)c1cccc2c1CCC2 shows Population Normal (%) of 90% or higher.
Result: 0 (no)

Task: Cool, now CC[C@@]1(O)C(=O)OCc2c1cc1n(c2=O)Cc2cc3ccccc3nc2-1
Result: 0 (no)

Task: Cool, now CC(C)c1cc(Nc2nc(N3CCC[C@H](N)C3)ncc2C(N)=O)cc(C(C)C)n1
Result: 0 (no)

Task: Cool, now NC(=O)c1ccc2nc(-c3ccc(C4(N)CCC4)cc3)c(-c3ccccc3)n2n1
Result: 1 (yes)

Task: Cool, now Oc1cccc(-c2nc(N3CCOCC3)c3oc4ncccc4c3n2)c1
Result: 1 (yes)

Task: Cool, now CCOc1ccn(-c2ccc(F)cc2)c(=O)c1C(=O)Nc1ccc(Oc2ccnc(N)c2Cl)c(F)c1
Result: 0 (no)

Task: Cool, now Cc1c(Nc2ccc(S(=O)(=O)N3CCN(C)CC3)cc2F)nc2ccc(Nc3cnn(C4CC4)c3)cn2c1=O
Result: 0 (no)

Task: Cool, now c1ccc(-c2oc3ncnc(NC[C@@H]4CCCO4)c3c2-c2ccccc2)cc1
Result: 1 (yes)

Task: Cool, now Cl.Cn1c2c(c3ccc(Cl)c(Cl)c31)C(C#N)C1(CCNCC1)NC2=O (configuration not stated)
Result: 0 (no)

Task: Cool, now CCCCN(CC)c1nc(C)nc2c1c(C)cn2-c1c(C)cc(C)cc1C.Cl
Result: 1 (yes)

More entries:
Task: Hi, just wondering whether CCCc1cc(C)[nH]c(=O)c1CNC(=O)c1cc(-c2ccc(N3CCN(C(C)C)CC3)nc2)cc2c1cnn2C(C)C shows Population Normal (%) of 90% or higher.
Result: 1 (yes)

Task: Cool, now CC(Cc1ccc(O)c(O)c1)C(C)Cc1ccc(O)c(O)c1 (configuration not stated) [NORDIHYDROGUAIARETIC ACID]
Result: 1 (yes)

Task: Cool, now CC[C@H](Nc1ncnc2[nH]cnc12)c1nc2cccc(F)c2c(=O)n1-c1ccccc1
Result: 0 (no)

Task: Cool, now CCCCCNC(=N)N/N=C/c1c[nH]c2ccc(OC)cc12.O=C(O)/C=C\C(=O)O [TEGASEROD MALEATE]
Result: 0 (no)
